target: human monocyte chemo-attractant protein-1 (MCP-1) (human, UniProt P13500 24-99); assay: cell-based or functional assay
Sequence (P13500 24-99): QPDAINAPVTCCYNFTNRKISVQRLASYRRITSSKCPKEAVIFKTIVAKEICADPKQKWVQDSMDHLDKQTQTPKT
reported property: IC50 Ca++ Flux (µg/mL)
State the answer as a number, implicitly in µg/mL.

Give the measured IC50 Ca++ Flux of anti-MCP-1 mAb 3.5.1 (antibody, V domains shown) VH: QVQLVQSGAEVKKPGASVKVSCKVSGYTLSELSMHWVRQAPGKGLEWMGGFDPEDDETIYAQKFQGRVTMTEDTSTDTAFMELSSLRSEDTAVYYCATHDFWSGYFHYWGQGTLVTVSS VL: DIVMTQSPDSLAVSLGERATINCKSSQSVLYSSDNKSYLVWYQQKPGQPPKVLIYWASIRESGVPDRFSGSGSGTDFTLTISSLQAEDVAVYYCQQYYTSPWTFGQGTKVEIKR .
0.58

Try this binder too: anti-MCP-1 mAb 3.11.1 (antibody, human IgG4, kappa, V domains shown) VH: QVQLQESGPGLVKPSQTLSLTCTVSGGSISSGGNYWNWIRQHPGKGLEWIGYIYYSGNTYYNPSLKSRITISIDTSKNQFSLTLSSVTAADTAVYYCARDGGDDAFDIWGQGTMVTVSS VL: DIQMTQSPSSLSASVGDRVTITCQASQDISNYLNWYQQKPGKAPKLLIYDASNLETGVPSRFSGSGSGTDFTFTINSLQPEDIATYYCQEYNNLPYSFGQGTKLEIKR
0.092

Try this binder too: anti-MCP-1 mAb 5.1 (antibody, V domains shown) VH: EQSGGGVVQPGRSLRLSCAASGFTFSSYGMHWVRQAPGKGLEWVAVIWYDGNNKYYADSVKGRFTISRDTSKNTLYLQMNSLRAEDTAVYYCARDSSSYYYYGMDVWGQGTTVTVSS VL: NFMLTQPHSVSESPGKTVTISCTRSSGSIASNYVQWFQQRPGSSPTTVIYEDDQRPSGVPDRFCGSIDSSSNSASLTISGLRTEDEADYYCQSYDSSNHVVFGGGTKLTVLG
3.5
